# PROTOCOL NOTES: Plasma pharmacokinetics, noncompartmental analysis (LC-MS/MS)
# Format: in vivo, human
# RUN PARAMETERS: human, plasma, oral; Part F; abemaciclib 150 mg Q12H with trastuzumab; read-out: steady-state mean AUC0-tlast
PROPERTY LABEL: AUC(0-t) (ng·h/mL)

CCN1CCN(Cc2ccc(Nc3ncc(F)c(-c4cc(F)c5nc(C)n(C(C)C)c5c4)n3)nc2)CC1 [abemaciclib]    1660

----------
# PROTOCOL NOTES: Plasma pharmacokinetics, noncompartmental analysis (LC-MS/MS)
# Format: in vivo, human
# RUN PARAMETERS: human, plasma, oral, 150 mg, Part F; abemaciclib 150 mg Q12H with trastuzumab; read-out: steady-state mean Cmax
PROPERTY LABEL: Cmax

CCN1CCN(Cc2ccc(Nc3ncc(F)c(-c4cc(F)c5nc(C)n(C(C)C)c5c4)n3)nc2)CC1 [abemaciclib]    242 ng/mL
